tested on: A549-GM130-SQSTM1; assay: phenotypically active (imaging signature differs from DMSO and reproducible) at any of 0.3-9 uM (binary (1 = active, 0 = inactive)); higher = active; conditions: treatment time: 24 h
Here the recorded phenotypically active is given for each entry.
Endpoint: phenotypically active

1. C[C@]12CC[C@H]3[C@@H](CC[C@]4(O)C[C@@H](O)CC[C@]34C=O)[C@@]1(O)CC[C@@H]2C1=CC(=O)OC1: 1
2. C[C@@]1(CO)[C@H](O)CC[C@@]2(C)[C@H]1CC[C@H]1C[C@@H]3C[C@@]12CC[C@]3(O)CO: 1
3. N#CC(C#N)=Cc1ccc(O)c(O)c1: 0
4. CCN(C)C(=O)Oc1cccc([C@H](C)N(C)C)c1: 0

----------
test system: WPMY1-TUBA1B-RELA; test: lowest phenotypically active concentration; higher = less potent; settings: treatment time: 24 h
Counter-ions that a name gives are not always drawn.
Endpoint: lowest phenotypically active concentration (µM)

1. COc1ccc(CCN2CCC(Nc3nc4ccccc4n3Cc3ccc(F)cc3)CC2)cc1: 3
2. O=C(NCCN1CCC2(CC1)C(=O)NCN2c1cccc(F)c1)c1ccc(F)c(F)c1 [ML 298 hydrochloride]: 9
3. COC1=CC(C)=C[C@@H](C)[C@@H](O)[C@@H](C)CC(C)=CC=C[C@H](OC)[C@@H]([C@@H](C)[C@@H](O)[C@H](C)[C@@]2(O)C[C@@H](O)[C@H](C)[C@@H](C(C)C)O2)OC1=O: 3
4. C[C@@]12C(=O)OC(=O)[C@]1(C)[C@H]1CC[C@@H]2O1: 3
5. Cc1cc2c(C(C)C)c(O)c(O)c(C=O)c2c(O)c1-c1c(C)cc2c(C(C)C)c(O)c(O)c(C=O)c2c1O: 9
6. Cc1sc2c(c1C)C(c1ccc(Cl)cc1)=N[C@H](CC(=O)OC(C)(C)C)c1nnc(C)n1-2: 9
7. C=C1[C@@H](C)[C@H]2[C@H](Cc3ccccc3)NC(=O)[C@]23OC(=O)C=C[C@H](O)CCC[C@@H](C)CC=C[C@H]3[C@@H]1O: 3
8. CC(C)[C@@]1(NC(=O)[C@@H]2C[C@@H]3c4cccc5[nH]cc(c45)C[C@H]3N(C)C2)O[C@@]2(O)[C@@H]3CCCN3C(=O)[C@H](Cc3ccccc3)N2C1=O [Dihydroergocristine mesylate]: 9

----------
Here the recorded phenotypically active is given for each entry.
tested on: WPMY1-TP53BP1-CLTA; assay: phenotypically active (imaging signature differs from DMSO and reproducible) at any of 0.3-9 uM (binary (1 = active, 0 = inactive)); higher = active; conditions: treatment time: 24 h
Endpoint: phenotypically active

1) COc1ccc2c(c[n+](C)c3c4cc5c(cc4ccc23)OCO5)c1OC [Chelerythrine chloride]: 1
2) N#CC(C#N)=Cc1ccc(O)c(O)c1: 0
3) C=C1[C@@H](C)[C@H]2[C@H](Cc3ccccc3)NC(=O)[C@]23OC(=O)C=C[C@H](O)CCC[C@@H](C)CC=C[C@H]3[C@@H]1O: 1
4) CCCN1C[C@H](CSC)C[C@@H]2c3cccc4[nH]cc(c34)C[C@H]21 [pergolide]: 0

----------
test system: WPMY1-CANX-COX4; test: phenotypically active (imaging signature differs from DMSO and reproducible) at any of 0.3-9 uM (binary (1 = active, 0 = inactive)); higher = active; settings: treatment time: 24 h
Structures can show the parent of a compound that is named as a salt.
Labels: YES (active), NO (inactive)

1) CO[C@H]1C=C2CCN(C)[C@H]2[C@@H]2c3cc4c(cc3[C@@H](O)O[C@@H]21)OCO4: NO
2) O=C1NC(=S)N(c2cccc(Br)c2)C(=O)/C1=C/c1ccco1: YES
3) N#CC(CCN1CCC(C(=O)O)(c2ccccc2)CC1)(c1ccccc1)c1ccccc1: NO
4) COc1cc2c(c(OC)c1OC)-c1ccc(O)c(=O)cc1[C@@H](N)CC2: NO
5) Cc1cc2c(C(C)C)c(O)c(O)c(C=O)c2c(O)c1-c1c(C)cc2c(C(C)C)c(O)c(O)c(C=O)c2c1O: YES
6) C[C@H](N)Cc1ccccc1: NO
7) C[C@]12COC(=O)C[C@@H]1CC[C@@H]1[C@@H]2CC[C@@]2(C)[C@H]1CC[C@]2(C)O: NO
8) O=C(NCCN1CCC2(CC1)C(=O)NCN2c1cccc(F)c1)c1ccc(F)c(F)c1 [ML 298 hydrochloride]: YES
9) COc1cc(C(=O)O[C@H]2C[C@H]3CC[C@@H](C2)N3C)ccc1O: NO
10) COc1ccc(C[C@H]2NC[C@H](O)[C@H]2OC(C)=O)cc1: YES
11) CN1C[C@H](C(=O)N[C@]2(C)O[C@@]3(O)[C@@H]4CCCN4C(=O)[C@H](Cc4ccccc4)N3C2=O)C=C2c3cccc4[nH]cc(c34)C[C@H]21: YES
12) NC(=S)N/N=C/c1coc2ccccc2c1=O: NO
13) O=C1C[C@@H]2OCC=C3C[N+]4([O-])CC[C@]56c7ccccc7N1[C@H]5[C@H]2[C@H]3C[C@@H]64 (stereo partly specified): NO
14) O=C1CCCN1CC#CCN1CCCC1 [Oxotremorine sesquifumarate]: NO
15) CO[C@H](C)[C@](O)(C(=O)OCC1=CCN2CC[C@H](O)[C@@H]12)C(C)C: NO
16) C[N+]1([O-])[C@@H]2C[C@@H](OC(=O)[C@H](CO)c3ccccc3)C[C@H]1[C@@H]1O[C@@H]12 (stereo partly specified): NO

These data points were gathered from the supplement of paper PMC7411054.
